- Test system: C. albicans
- test-description: Minimum Inhibitory Concentration (MIC), C. albicans, CLSI M27-A2
- Format: cell-based
- applied-conditions: Candida albicans MIC50; about 50% growth reduction; approximately 48 h at 35±1° C.
assay-metric: MIC (µg/mL)

a: C[C@@H](c1ncncc1F)[C@](O)(Cn1cncn1)c1ccc(F)cc1F [Voriconazole, reference compound]
b: OC(Cn1cnnn1)(c1ccc(F)cc1F)C(F)(F)c1ccc(C#Cc2ccc(OCc3ccc(Cl)cc3F)cc2)cn1 (racemic)
c: OC(Cn1cnnn1)(c1ccc(F)cc1F)C(F)(F)c1ccc(C#Cc2ccc(OCc3ccc(OC(F)(F)F)cc3)cc2)cn1 (racemic)
Which order do these items fall in when sorted by MIC from largest to smallest? Use the labels to give the ranking in the order requested.
c, b, a
